Source of measurements: patent US8486968B2

IC50 for assorted compounds
# target_or_test_system: mPGES-1 (Homo sapiens)
# Sequence (O14684 1-152): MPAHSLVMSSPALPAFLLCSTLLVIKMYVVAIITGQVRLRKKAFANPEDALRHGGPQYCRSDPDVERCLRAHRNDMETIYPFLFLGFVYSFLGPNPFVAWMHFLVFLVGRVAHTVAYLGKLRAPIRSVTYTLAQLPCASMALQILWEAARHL
# method_notes: A549 cell-based assay (PGE2 formation, IL-1β stimulated, 50% human serum)
# Set-up: host or cells: A549 cells
# condition_summary: A549 cells, IL-1β 5 ng/ml, 20-24 h, Table B, read-out: mPGES-1 inhibitory effect, IC50, cell assay
test_readout: IC50

> print(dat)
                              sample.smiles   target.or.test.system  test.readout  observed.result
1  Cn1c(Nc2c(Cl)ccc(CNC(=O)C(C)(C)C)c2Cl)nc2cc(C(=O)N[C@H](c3ccccc3)C(F)(F)F)c(N3CCC(C(F)(F)F)CC3)nc21  mPGES-1 (Homo sapiens)          IC50             6 nM
2  Cn1c(Nc2c(Cl)ccc(CNC(=O)C(C)(C)C)c2Cl)nc2cc(C(=O)NC3CC(F)(F)C3)c(N3CCC(C(F)(F)F)CC3)nc21  mPGES-1 (Homo sapiens)          IC50            16 nM
3  CC(C)(C)OC(=O)NCc1cc(F)c(Cl)c(Nc2nc3cc(C(=O)N[C@H]4CC[C@H](C(F)(F)F)CC4)c(N4CCC(F)CC4)nc3[nH]2)c1Cl  mPGES-1 (Homo sapiens)          IC50            86 nM
4  CN(CC(F)F)c1nc2c(cc1C(=O)N[C@H]1CC[C@H](C(F)(F)F)CC1)nc(Nc1cc(CNC(=O)C3(C(F)(F)F)CC3)ccc1Cl)n2C  mPGES-1 (Homo sapiens)          IC50            58 nM
